Molecular target: delF508-CFTR (Homo sapiens, UniProt P13569, DEL508-508)
Construct: endogenous in cells; host or cells: CF15 (homozygous delF508)
Sequence (P13569 with tags, fused parts or gaps DEL508-508): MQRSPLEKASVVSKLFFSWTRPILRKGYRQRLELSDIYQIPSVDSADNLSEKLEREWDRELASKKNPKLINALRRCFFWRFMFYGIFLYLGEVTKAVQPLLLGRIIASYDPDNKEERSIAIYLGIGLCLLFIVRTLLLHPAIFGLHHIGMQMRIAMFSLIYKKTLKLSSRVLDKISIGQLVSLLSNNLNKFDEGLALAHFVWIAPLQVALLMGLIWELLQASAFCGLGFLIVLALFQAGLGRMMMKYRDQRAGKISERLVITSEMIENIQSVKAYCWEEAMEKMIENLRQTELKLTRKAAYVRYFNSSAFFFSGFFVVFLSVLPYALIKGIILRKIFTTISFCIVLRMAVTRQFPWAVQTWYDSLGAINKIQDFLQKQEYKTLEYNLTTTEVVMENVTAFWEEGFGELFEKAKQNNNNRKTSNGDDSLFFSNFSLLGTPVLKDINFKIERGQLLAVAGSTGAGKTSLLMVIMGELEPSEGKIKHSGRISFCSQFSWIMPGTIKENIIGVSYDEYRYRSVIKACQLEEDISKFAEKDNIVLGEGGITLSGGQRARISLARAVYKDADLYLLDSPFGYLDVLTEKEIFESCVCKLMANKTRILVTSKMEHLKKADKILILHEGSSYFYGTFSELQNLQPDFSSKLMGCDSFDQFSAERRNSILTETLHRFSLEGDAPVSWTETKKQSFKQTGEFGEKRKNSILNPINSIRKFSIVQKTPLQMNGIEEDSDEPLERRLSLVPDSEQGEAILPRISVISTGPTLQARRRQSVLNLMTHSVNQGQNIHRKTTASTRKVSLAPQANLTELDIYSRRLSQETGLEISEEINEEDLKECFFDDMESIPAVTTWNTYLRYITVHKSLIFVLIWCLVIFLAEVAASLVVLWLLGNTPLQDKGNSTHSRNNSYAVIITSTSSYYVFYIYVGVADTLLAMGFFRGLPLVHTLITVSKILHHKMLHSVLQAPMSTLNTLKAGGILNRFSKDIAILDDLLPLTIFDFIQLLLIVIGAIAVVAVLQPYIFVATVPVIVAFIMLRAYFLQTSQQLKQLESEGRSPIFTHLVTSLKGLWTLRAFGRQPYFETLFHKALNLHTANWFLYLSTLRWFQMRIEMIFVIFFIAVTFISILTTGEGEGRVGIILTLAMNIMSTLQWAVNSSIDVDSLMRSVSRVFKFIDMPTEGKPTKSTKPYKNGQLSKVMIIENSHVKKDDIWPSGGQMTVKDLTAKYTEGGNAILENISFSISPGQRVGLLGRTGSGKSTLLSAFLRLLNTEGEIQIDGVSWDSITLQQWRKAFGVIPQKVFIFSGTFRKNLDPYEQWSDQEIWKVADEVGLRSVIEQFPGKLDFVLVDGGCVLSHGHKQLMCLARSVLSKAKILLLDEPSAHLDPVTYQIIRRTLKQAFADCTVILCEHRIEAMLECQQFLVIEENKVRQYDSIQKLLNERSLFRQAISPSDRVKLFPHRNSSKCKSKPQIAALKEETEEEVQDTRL
Experiment: iodide efflux, activation of delF508 in CF15 cells after incubation at 27° C.
Format: cell-based
READOUT_NAME: EC50 (nM)
State the answer as a number, implicitly in nM.

Item `CCCCc1c(-c2ccc(O)cc2)[nH]c2nccnc12` has what recorded EC50?
110

---

Biological target: G551D-CFTR (Homo sapiens, UniProt P13569, G551D)
Sequence (P13569 whole entry G551D): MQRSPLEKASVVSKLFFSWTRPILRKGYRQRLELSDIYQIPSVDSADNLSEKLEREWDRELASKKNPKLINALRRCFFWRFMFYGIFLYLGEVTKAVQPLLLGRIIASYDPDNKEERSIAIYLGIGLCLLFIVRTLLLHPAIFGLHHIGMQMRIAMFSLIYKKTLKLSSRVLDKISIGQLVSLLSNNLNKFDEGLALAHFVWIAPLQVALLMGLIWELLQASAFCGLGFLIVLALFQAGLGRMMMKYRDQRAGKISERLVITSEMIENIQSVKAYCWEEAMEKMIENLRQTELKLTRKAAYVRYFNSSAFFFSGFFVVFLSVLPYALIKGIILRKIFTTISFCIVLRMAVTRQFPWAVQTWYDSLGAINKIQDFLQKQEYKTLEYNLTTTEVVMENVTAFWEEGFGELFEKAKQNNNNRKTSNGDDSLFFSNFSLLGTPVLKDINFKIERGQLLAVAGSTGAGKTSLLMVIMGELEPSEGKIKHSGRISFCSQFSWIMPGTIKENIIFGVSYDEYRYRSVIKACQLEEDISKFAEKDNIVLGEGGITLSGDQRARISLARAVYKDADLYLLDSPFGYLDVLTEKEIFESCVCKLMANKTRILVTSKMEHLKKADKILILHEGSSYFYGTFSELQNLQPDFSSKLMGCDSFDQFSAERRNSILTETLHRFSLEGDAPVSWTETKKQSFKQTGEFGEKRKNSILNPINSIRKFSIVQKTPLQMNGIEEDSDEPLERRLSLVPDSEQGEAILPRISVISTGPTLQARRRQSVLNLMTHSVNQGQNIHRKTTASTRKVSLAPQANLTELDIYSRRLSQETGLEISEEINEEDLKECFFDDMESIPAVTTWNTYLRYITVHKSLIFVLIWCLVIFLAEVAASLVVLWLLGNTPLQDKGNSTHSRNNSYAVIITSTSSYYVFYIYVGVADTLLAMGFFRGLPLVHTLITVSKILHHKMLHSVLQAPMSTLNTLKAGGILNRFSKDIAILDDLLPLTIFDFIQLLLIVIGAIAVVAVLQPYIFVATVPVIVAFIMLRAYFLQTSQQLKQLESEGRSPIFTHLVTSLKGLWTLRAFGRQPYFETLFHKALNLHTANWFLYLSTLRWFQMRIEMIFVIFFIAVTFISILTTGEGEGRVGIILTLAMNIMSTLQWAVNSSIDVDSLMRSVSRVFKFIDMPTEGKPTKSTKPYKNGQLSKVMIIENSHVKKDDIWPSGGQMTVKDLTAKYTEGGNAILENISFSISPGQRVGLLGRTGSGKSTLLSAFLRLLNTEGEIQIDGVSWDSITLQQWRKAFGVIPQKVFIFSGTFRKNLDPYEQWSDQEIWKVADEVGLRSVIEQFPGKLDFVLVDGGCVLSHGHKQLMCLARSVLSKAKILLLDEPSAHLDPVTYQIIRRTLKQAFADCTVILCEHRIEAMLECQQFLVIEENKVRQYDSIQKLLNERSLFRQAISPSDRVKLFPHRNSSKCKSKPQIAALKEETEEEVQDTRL
Assay: iodide efflux, activation of G551D-CFTR in CHO cells
Settings: CHO cell
READOUT_NAME: pEC50
Worth noting: pEC50 values are minus log10 of concentrations stated in mol/L.

Observed pEC50 on G551D-CFTR (Homo sapiens, UniProt P13569, G551D) for `CCCCc1c(-c2ccc(O)cc2)[nH]c2nccnc12` , please.
8.82
